B1: tRNA (parent)
chain: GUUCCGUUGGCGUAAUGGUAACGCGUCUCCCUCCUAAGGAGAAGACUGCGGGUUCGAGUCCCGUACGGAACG

# Variants of: B1
# Measurement description: yeast fitness relative to wild type (ratio to wild type); higher = fitter; tRNA-Arg(CCU), competitive growth, 37 C, YPD
Fewer inactive variants are shown than the library holds.
Could you label it condition met if measured yeast fitness is 0.6 or higher, and condition not met otherwise?

Recorded results for 6 variants are shown here.
C34U G58C C62G G67A; condition not met
G6U G44C; condition met
U7A A15G G23A; condition met
A40U G68A; condition met
C22U C27U C55A A57U C61G; condition not met
C4G U7A C29U; condition not met

For the next question, use this variant.
Confirm if yeast fitness reported for the variant U8A C24A is 0.6 or above.
condition met
